test: Study-2 single-dose pharmacokinetics (plasma); type: in vivo, human; settings: human, plasma, oral; Study-2 single dose, 60 mg QD cohort; geo mean (GeoCV%); read-out: Vz/F
READOUT_LABEL: Vd/F (L)
Lab book: enter the figure in L, no units written.

Reported Vd/F of [O-][n+]1cccc(-c2nc3c(Cl)cccc3cc2[C@@H](Nc2ncnc3cccnc23)C(F)(F)F)c1 : 57.2

----------
experiment: Study-1 Part-B multiple ascending dose pharmacokinetics (plasma and urine); format: in vivo, human; conditions: human, plasma, oral, Study-1 Part-B, day 14, fed, range across groups; read-out: time to peak plasma concentration
READOUT_LABEL: Tmax

Reported Tmax of [O-][n+]1cccc(-c2nc3c(Cl)cccc3cc2[C@@H](Nc2ncnc3cccnc23)C(F)(F)F)c1 : 3 to 3.5 h

----------
experiment: Study-2 multiple-dose day 14 pharmacokinetics (plasma); type: in vivo, human; conditions: human, plasma, oral; Study-2, 30 mg QD, Day 14; geo mean (GeoCV%)
READOUT_LABEL: half-life (h)
Lab book: enter the figure in h, no units written.

Reported half-life of [O-][n+]1cccc(-c2nc3c(Cl)cccc3cc2[C@@H](Nc2ncnc3cccnc23)C(F)(F)F)c1 : 24.6

----------
assay: Study-1 Part-B multiple ascending dose pharmacokinetics (plasma and urine); assay type: in vivo, human; details: human, plasma, oral, 15 mg, Study-1 Part-B, 15 mg, Day 1; median (range); read-out: tmax
READOUT_LABEL: Tmax (h)
Lab book: enter the figure in h, no units written.

Reported Tmax of [O-][n+]1cccc(-c2nc3c(Cl)cccc3cc2[C@@H](Nc2ncnc3cccnc23)C(F)(F)F)c1 : 3.01

----------
assay: Study-1 Part-A single ascending dose pharmacokinetics (plasma and urine); type: in vivo, human; conditions: human, plasma, oral, 5 mg, Study-1 Part-A, single dose 5 mg fed; median (range); read-out: tmax
READOUT_LABEL: Tmax (h)
Lab book: enter the figure in h, no units written.

Reported Tmax of [O-][n+]1cccc(-c2nc3c(Cl)cccc3cc2[C@@H](Nc2ncnc3cccnc23)C(F)(F)F)c1 [Seletalisib, seletalisib] : 4

----------
Test: Study-2 multiple-dose day 14 pharmacokinetics (plasma)
Type: in vivo, human
Conditions: human, plasma, oral, 30 mg, Study-2, 30 mg QD, Day 14; geo mean (GeoCV%); read-out: AUC(0–t)
Protocol: These were phase I, randomised, double-blind, placebo-controlled studies designed to evaluate the safety, tolerability, PK and PD profiles of seletalisib following oral administration of single ascending doses and multiple ascending doses. […] Plasma concentrations of seletalisib were measured by high-performance liquid chromatography with tandem mass spectrometry (see Online Resource S1 for further details). […]
READOUT_LABEL: AUC(0-t) (ng·h/mL)
Lab book: enter the figure in ng·h/mL, no units written.

Reported AUC(0-t) of [O-][n+]1cccc(-c2nc3c(Cl)cccc3cc2[C@@H](Nc2ncnc3cccnc23)C(F)(F)F)c1 [Seletalisib, seletalisib] : 24900

----------
assay: Study-1 Part-A single ascending dose pharmacokinetics (plasma and urine); format: in vivo, human; conditions: human, plasma, oral, 15 mg, Study-1 Part-A, single dose 15 mg fasted; median (range); read-out: tmax
READOUT_LABEL: Tmax (h)
Lab book: enter the figure in h, no units written.

Reported Tmax of [O-][n+]1cccc(-c2nc3c(Cl)cccc3cc2[C@@H](Nc2ncnc3cccnc23)C(F)(F)F)c1 : 3

Values from paper PMC5384962
